These data points were gathered from the OligoGym collection.

# experimentalSystem: SLC7A11
# assayMethodText: pooled miR-30 sensor sort-seq; sequence = guide strand; further: reference of the scale not given here
# particulars: shRNA
Documented sensor-assay potency score (higher = more potent) across a set of sequences
measurementType: sensor-assay potency score (higher = more potent)

{"sequenceInput": "TAATGGACCAAAGACTTCCAAA", "testResult": -1.33}
{"sequenceInput": "TTAATTAGCTGCATAACTCCAG", "testResult": 0.313}
{"sequenceInput": "TATATGTGTAATGACCTCCAGA", "testResult": -0.907}
{"sequenceInput": "TTCTTCAGTAACAAAGTTGAGG", "testResult": -0.835}
{"sequenceInput": "ATAATTATCAGAATTGCTGTGA", "testResult": 0.593}
{"sequenceInput": "TAATACTTGAATCTCTTCCTGA", "testResult": 0.636}

====

# experimentalSystem: GRIPAP1
# assayMethodText: pooled miR-30 sensor sort-seq; sequence = guide strand
# particulars: shRNA
Documented sensor-assay potency score (higher = more potent) across a set of sequences
measurementType: sensor-assay potency score (higher = more potent)

{"sequenceInput": "TTCCTGTGCATCTGCACTCTGG", "testResult": -1.21}
{"sequenceInput": "TTTGCTGAACTCCTTATCCAAG", "testResult": -1.41}
{"sequenceInput": "TTCCATTGCTAGCTCATCCAGC", "testResult": -0.174}
{"sequenceInput": "TTCCTTGCTGAACTCGGCCATT", "testResult": -1.52}
{"sequenceInput": "TTGTGATCAGCTTCCTTCCGTT", "testResult": -0.347}
{"sequenceInput": "TTTCTTTTTCAGTTTCTCGGAG", "testResult": -0.138}
{"sequenceInput": "TTGAAGTTCTTCCACTGTCTGC", "testResult": -0.043}
{"sequenceInput": "TTGCTGGTTCTCTTGCTCCAGC", "testResult": -0.982}
{"sequenceInput": "TTTGTGATCAGCTTCCTTCCGT", "testResult": 0.395}
{"sequenceInput": "TTCTTGAAGTTGTTCCAGCAGT", "testResult": -0.658}

====

# experimentalSystem: PPP2R2B
# assayMethodText: pooled miR-30 sensor sort-seq; sequence = guide strand
# particulars: shRNA
measurementType: sensor-assay potency score (higher = more potent)

{"sequenceInput": "TTGACGGTCAAGTAGTCCCTGG", "testResult": -0.065}
{"sequenceInput": "TAAACTCTTCAGGTAATCGAAC", "testResult": -0.877}
{"sequenceInput": "TTGACTAGTATTCAGTATGTGA", "testResult": -0.666}
{"sequenceInput": "TATTTCTAAACTCTTCAGGTAA", "testResult": -0.582}
{"sequenceInput": "TAGAGGGAACACAGCTTGCTGC", "testResult": -0.62}
{"sequenceInput": "TTAAATACTACAGACAACCTCA", "testResult": 0.289}
{"sequenceInput": "TTCTTCTATTTCTAAACTCTTC", "testResult": -0.752}
{"sequenceInput": "TCTGTTGCTTGGATCTTCCGGC", "testResult": 0.454}
{"sequenceInput": "TTCATAGAGGGAACACAGCTTG", "testResult": -0.115}

====

Documented sensor-assay potency score (higher = more potent) across a set of sequences
# experimentalSystem: ACOT1
# assayMethodText: pooled miR-30 sensor sort-seq; sequence = guide strand
# particulars: shRNA
measurementType: sensor-assay potency score (higher = more potent)

{"sequenceInput": "ATTCGCACCGGTTCGTCCCAGC", "testResult": -0.912}
{"sequenceInput": "AACATGTCCACAATGCCAGGAA", "testResult": -0.319}
{"sequenceInput": "TTTTACCTCAGGATGACTGAGC", "testResult": -0.46}
{"sequenceInput": "AGCTCTTCTGGTCAGGTCCTTC", "testResult": -1.49}
{"sequenceInput": "TTCATAGTTATAGTAAGCCAGA", "testResult": -1.24}
{"sequenceInput": "ATCTTTGGTCACCTTGATGCGA", "testResult": -0.779}
{"sequenceInput": "TGAGCAAGTAGTTCACAGCTTC", "testResult": -0.12}
{"sequenceInput": "TAGCGCTCGTGCCGCACCCGGC", "testResult": -1.32}
{"sequenceInput": "TTGTAGCGTAAGGTTCCCCCAA", "testResult": -1.03}
{"sequenceInput": "TACCTCAGGATGACTGAGCAAG", "testResult": -0.802}

====

# experimentalSystem: KRTAP5-9
# assayMethodText: pooled miR-30 sensor sort-seq; sequence = guide strand
# particulars: shRNA
measurementType: sensor-assay potency score (higher = more potent)

{"sequenceInput": "CACACAGGGACACAGCATCTGG", "testResult": -1.57}
{"sequenceInput": "TAGAGCAGGAACAGGCTGGAAC", "testResult": -1.08}
{"sequenceInput": "AGCTAGAGCAGGAACAGGCTGG", "testResult": -1.04}
{"sequenceInput": "TTGCAGCAGTAGACGGGTGCAC", "testResult": -0.372}
{"sequenceInput": "TAGGGCTTGCAGCAGCTGCACT", "testResult": -1.29}
{"sequenceInput": "TGAGGATGAGCAGCAGGGCTTG", "testResult": -1.74}
{"sequenceInput": "AGTCACAGCCTCCACAGCTGGA", "testResult": -1.85}

====

# experimentalSystem: EYA3
# assayMethodText: pooled miR-30 sensor sort-seq; sequence = guide strand
# particulars: shRNA
Mark 0 for sensor-assay potency score (higher = more potent) values under -0.3, and 1 for everything at or above.

{"sequenceInput": "TTCTAATTCACTGTCTTGGGAA", "classAssignment": 1}
{"sequenceInput": "TAGTCCATATAGGAGAACCTTG", "classAssignment": 0}
{"sequenceInput": "TTTGGTAGCACTATAGATGTTC", "classAssignment": 1}
{"sequenceInput": "ATCACTGTTAGTCTGACCTGTG", "classAssignment": 1}
{"sequenceInput": "TATAATCATTGGATGAGCGAGG", "classAssignment": 0}
{"sequenceInput": "TTGTGAGGTATAATCATTGGAT", "classAssignment": 0}
{"sequenceInput": "TCTGGTATTGAGTCTGTCCAGG", "classAssignment": 0}
{"sequenceInput": "TTAATCTCTGCAGTGCTTCCTT", "classAssignment": 1}
{"sequenceInput": "TTTAATGCAGTTCCTAACCAGG", "classAssignment": 0}
{"sequenceInput": "TAGATTTCTCTCACTTTCCGGT", "classAssignment": 1}
{"sequenceInput": "TTTACTTGGTGTAGTCTGGGAC", "classAssignment": 0}
{"sequenceInput": "TTAGTCTGACCTGTGACTCCAA", "classAssignment": 0}
{"sequenceInput": "TAGTTTGCTCTCCTGATTCCTG", "classAssignment": 1}
{"sequenceInput": "TTGCTAGTCATGTTTTTCCTGG", "classAssignment": 0}

====

Documented sensor-assay potency score (higher = more potent) across a set of sequences
# experimentalSystem: OPRK1
# assayMethodText: pooled miR-30 sensor sort-seq; sequence = guide strand
# particulars: shRNA
measurementType: sensor-assay potency score (higher = more potent)

{"sequenceInput": "TATCGGATGATCACGAACATGA", "testResult": -0.746}
{"sequenceInput": "TTGTAGTAACTAAAGCATCTGC", "testResult": -0.405}
{"sequenceInput": "AATAGCTGGAGAGAGCAGCTGT", "testResult": 0.381}
{"sequenceInput": "TTGGTTGCTGTCTTCATCTTTG", "testResult": -0.766}
{"sequenceInput": "TTACTATCTTGCACAGCACATC", "testResult": -1.6}
{"sequenceInput": "ATGACATCGACGTCTTCCCTGA", "testResult": -0.669}
{"sequenceInput": "TAGCTGGAGAGAGCAGCTGTGC", "testResult": -1.45}
{"sequenceInput": "TATCTTGCACAGCACATCCCCA", "testResult": -0.82}
{"sequenceInput": "TTCATGAAGAGGTCCCACCAGG", "testResult": -0.714}
{"sequenceInput": "TTGCTGTCTTCATCTTTGTGTA", "testResult": -0.644}

====

# experimentalSystem: TRPM6
# assayMethodText: pooled miR-30 sensor sort-seq; sequence = guide strand
# particulars: shRNA
Documented sensor-assay potency score (higher = more potent) across a set of sequences
measurementType: sensor-assay potency score (higher = more potent)

{"sequenceInput": "TAATTCTTCAACTCTTCTGAGG", "testResult": -0.79}
{"sequenceInput": "TTGAGTAATTCTTCAACTCTTC", "testResult": -0.179}
{"sequenceInput": "TATGTTATCACAGAGTTCCTGG", "testResult": 0.658}
{"sequenceInput": "TAGAACTCATAGACTTTCCTGG", "testResult": 0.494}
{"sequenceInput": "TTGTTGTTGTTATACTTCCGGA", "testResult": -0.714}
{"sequenceInput": "TAAAACTATGACTCCTAGCGAA", "testResult": -0.766}
